Please provide measured MIC Staphylococcus aureus (GC 4544) for the entries that follow.
# System: Staphylococcus sp.
# protocol_description: in vitro antibacterial evaluation, MIC by broth dilution
# Type: cell-based
# assay_context: broth dilution, 18 hours at 35° C.; strain GC 4544
Reply with just the number (in µg/mL).

Exercise: Give MIC Staphylococcus aureus (GC 4544) for CC(c1ccccc1)C1NC(=O)CNC(=O)C(CO)NC(=O)C(C(O)C2CNC(=N)N2C2OC(CO)C(O)C(O)C2O)NC(=O)C(C(O)C2CNC(=N)N2)NC(=O)C(Cc2ccc(OC3OC(CO)C(OC4OC5COC(c6ccc7ccccc7c6)OC5C(O)C4O)C(O)C3O)cc2)NC1=O (stereo not shown)
Key: 1

Exercise: Give MIC Staphylococcus aureus (GC 4544) for CCCC(C)C1OCC2OC(OC3C(CO)OC(Oc4ccc(CC5NC(=O)C(C(C)c6ccccc6)NC(=O)CNC(=O)C(CO)NC(=O)C(C(O)C6CNC(=N)N6C6OC(CO)C(O)C(O)C6O)NC(=O)C(C(O)C6CNC(=N)N6)NC5=O)cc4)C(O)C3O)C(O)C(O)C2O1 (stereo not shown)
Key: 1

Exercise: Give MIC Staphylococcus aureus (GC 4544) for CC(c1ccccc1)C1NC(=O)CNC(=O)C(CO)NC(=O)C(CC2CNC(=N)N2C2OC(CO)C(O)C(O)C2O)NC(=O)C(CC2CNC(=N)N2)NC(=O)C(Cc2ccc(OC3OC(CO)C(OC4OC(CO)C(OCc5ccc(OCc6ccccc6)cc5)C(O)C4O)C(O)C3O)cc2)NC1=O (stereo not shown) [Example 246a]
Key: 2

Ref: patent US6914045B2
